tested on: BT-549 breast; assay: NCI tumour cell line growth inhibition, 48 h
Please go through the items and note down their TGI.
Write the number in µM without appending the unit.

Query: Note down TGI recorded for "O=C1/C(=C/c2ccccc2)CCc2ccccc21"
Result: 29.7

Query: Identify the reported TGI for the following entry. "C[C@@H](Oc1ccc2[nH]nc(/C=C/c3cnn(CCO)c3)c2c1)c1c(Cl)cncc1Cl"
Result: 0.75

Query: For the molecule "Cc1ccc2c(c1)O/C(=C\c1ccc([N+](=O)[O-])o1)C2=O" , report TGI.
Result: 3.47

Query: Please list TGI recorded for the molecule "Nc1ccc(Oc2ccc(C34CC5CC(C3)CC(c3ccc(Oc6ccc(N)cc6)cc3)(C5)C4)cc2)cc1"
Result: 33.6

Query: Hello, please tell me recorded TGI for this one: NC(=S)N1N=C(c2ccccc2O)CC1c1ccccc1 (stereo unspecified)
Result: 75

Query: Quickly give me recorded TGI for CC1(C)CCC[C@@]2(C)C1C(=O)[C@@H]1O[C@]1(C)[C@@H]2CO (stereo partly specified)
Result: 43.6

Query: Recall and state the measured TGI for O=C(O)c1cc(Cc2ccc(O)c(C(=O)O)c2)ccc1O (tested in a mixture with another compound) .
Result: 16.6

Query: Tell us which TGI value is on record for "O=C1/C(=C\c2ccc(F)cc2)CCOc2c1ccc1ccccc21"
Result: 77.3

Query: Indicate the recorded TGI value for this molecule: "CC(=O)c1ccc2c(c1)N(CCCN1CCN(CCO)CC1)c1ccccc1C2"
Result: 28.1

Query: Indicate its recorded TGI; the molecule in question is "COC(=O)C[C@H](COCc1ccccc1)NC(=O)C[C@H](COCc1ccccc1)NC(=O)OC(C)(C)C"
Result: 51.9

Query: Name the recorded TGI of the item "CN(/N=C\c1ccc2ccccc2c1)C1=NCCN1" in your answer.
Result: 29.9

Query: Indicate its recorded TGI; the molecule in question is "COc1cc(-c2cc(/C=C3\C(=O)Nc4ccccc43)[nH]n2)cc(OC)c1OC"
Result: 6.58

Query: Determine from records and report TGI for "O=C(CNc1ncco1)Nc1ccc(S(=O)(=O)c2ccc(NC(=O)CNc3ncco3)cc2)cc1"
Result: 6.26

Query: Look up and state reported TGI for "COc1ccc2c(c1)cn1c3ccc(O)cc3[nH]c(=O)c21"
Result: 19.2

Query: Return TGI for the following molecule: COC1CC(CC2CCC(C)C(C(C)C(=O)O)O2)OC2(OC(C)(C3CCC(C)(C4OC(C5OC(O)(CO)C(C)CC5C)CC4C)O3)CC2C)C1C (stereo unspecified)
Result: 27.7

Query: Note down TGI recorded for "C1=C(c2ccccc2)SC=C(c2ccccc2)S1"
Result: 84.8

Query: Fill in reported TGI for this entry: "Nc1ccc(-c2nc3cc(F)ccc3s2)cc1CO"
Result: 51.2

----------
tested on: SF-539 CNS; experiment: NCI tumour cell line growth inhibition, 48 h
Outcome measure: TGI

Query: Dear colleague, please send me the reported TGI for COc1ccc(C(=O)C(C(=O)C(=O)Nc2nccs2)c2ccc(OC)cc2)cc1 (stereo not given) when you can.
Result: > 100 µM

Query: Name the recorded TGI of the compound listed here: "CCOC(=O)c1[nH]c(CN(C)Cc2[nH]c(C(=O)OCC)c(C)c2C(=O)OCc2ccccc2)c(C(=O)OCc2ccccc2)c1C"
Result: 21.3 µM

Query: Please list TGI recorded for the compound O=C1CC2(CCC(O)(c3cccs3)C(C(=O)c3cccs3)C2)C(=O)c2ccccc2N1 (stereo not given)
Result: > 100 µM

Query: Give the reported value of TGI for this record: CCc1cccc(C(C)CC)c1NC(=O)C(=O)C(CC(=O)Nc1ccc(Cl)c(Cl)c1)C(=O)OC (stereo not given)
Result: > 100 µM

Query: # return recorded TGI for input "CCCCCCCCCCCCn1[nH]c(C)c(C(=S)SCCCCCCCC)c1=O"
Result: > 100 µM

----------
system: SK-OV-3 ovarian; experiment: NCI tumour cell line growth inhibition, 48 h
Outcome measure: TGI

Query: Tell me its TGI given "C/C(=N\Nc1nc2ccccc2o1)c1cc(C)ncn1" as the entry.
Result: 2.5 µM

Query: Specify reported TGI for the compound shown: "[C-]#[N+][C@]12C(=O)[C@H](CCC1(C)C)C(C)(C)[C@H]1C(=O)N(C)c3cccc2c31"
Result: > 100 µM

Query: Give reported TGI value for CC1C=C[C@H](Sc2ccccc2)CC[C@@]1(C)O (stereo not given in full)
Result: > 100 µM

Query: Please look at this compound and report its TGI: Cc1ccc(NC(=O)C2C(=O)N(c3ccc(C)c(C)c3)C(=O)/C2=N\NC(N)=S)cc1C (stereo not given)
Result: > 100 µM

Query: Supply measured TGI of CC(O)C(O)C(O)C(/C=N\Nc1ccccc1)=N/Nc1ccccc1 (stereo not given) in your reply.
Result: 29.7 µM

Query: Please report TGI for the following compound: "CCCCCCCCCCCCn1[nH]c(C)c(C(=S)SCCCCCCCC)c1=O"
Result: > 100 µM

Query: Using known records, supply TGI for "Cc1cc(C)cc(Nc2ccc([N+](=O)[O-])c(NCCN3CCOCC3)n2)c1"
Result: > 100 µM

Query: Give a short answer stating reported TGI for "COc1cc(Cl)c2c3c(c(C(=O)c4ccccc4)oc13)CCC2" .
Result: > 100 µM

Query: Specify TGI for "COC(=O)CCc1cccnc1/C=N/O" and stop.
Result: > 100 µM

Query: Name the recorded TGI of the compound listed here: CSc1nc2c(c(O)c(C)c(=O)n2C2OCC(OC(C)=O)C(OC(C)=O)C2OC(C)=O)c(=O)n1C (stereo not given)
Result: > 100 µM

----------
Please go through the items and note down their TGI.
tested on: A549 NSCLC; experiment: NCI tumour cell line growth inhibition, 48 h

Query: // Input: "CN(C)CCc1ccnc2nc(-c3ccc4ccccc4c3)cn12" . Output its TGI only.
Result: > 100 µM

Query: Output TGI of "O=c1c2ccccc2nc(-c2ccccc2)n1O"
Result: > 100 µM

Query: Read the entry CC(=O)OC1CCC2(C)C(=CCC3C4CCC5(OC6CC(C)CN(C(C)=O)C6C5C)C(C)=C4C(=O)C32)C1 (stereo not given) and write its reported TGI.
Result: 47.7 µM

Query: Look up and report measured TGI for this entry: "Cc1cc(=O)[nH]c(/N=C(\N)Nc2ccc(Cl)cc2)n1"
Result: > 100 µM

Query: Assign TGI to the following record: "COc1cc2cc(Oc3ccc(NC(=O)Nc4ccc(Cl)c(C(F)(F)F)c4)cc3)c(C)nc2cc1OC"
Result: 4.16 µM

Query: // fetch TGI given entry CSc1nc2c(c(O)c(C)c(=O)n2C2OCC(OC(C)=O)C(OC(C)=O)C2OC(C)=O)c(=O)n1C (stereo not given)
Result: > 100 µM

Query: Name the recorded TGI of the compound listed here: "c1cc(-c2cn[nH]c2)cc(-c2cn[nH]c2)c1"
Result: 69.5 µM

Query: State its TGI for this compound: CC(=O)NC(CCCNC(=O)NCCCl)C(=O)NCc1ccccc1 (stereo not given)
Result: > 100 µM

Query: Supply measured TGI of "O=C1CCCCC(=O)Nc2ccccc2N1" in your reply.
Result: > 100 µM

Query: Write down TGI measured for item "COc1ccc(NC(=O)CC(=O)N/N=C/c2ccc(N(CCC#N)S(=O)(=O)c3ccccc3)cc2)cc1"
Result: > 100 µM

----------
tested on: LOX IMVI melanoma; test: NCI tumour cell line growth inhibition, 48 h
Would you kindly list GI50 for each of these compounds?

Query: Name the recorded GI50 of the compound listed here: "Cc1cccc2c1O/C(=C\c1ccc([N+](=O)[O-])o1)C2=O"
Result: 1230 nM

Query: Answer with the recorded GI50 for the compound listed here: "CCCCCCNc1nc(N2CCOCC2)c2[nH]c(NCCCCCC)nc2n1"
Result: 1480 nM

Query: Look up GI50 of "O=S(=O)(NCCNc1cc(-c2cn(-c3ccccc3)nc2-c2cccc(O)c2)ccn1)c1ccc(Cl)cc1" and report it.
Result: 1760 nM

Query: Return value of GI50 for input "N[C@@H]1CCCC[C@@H]1N.O=C([O-])CN(CP(=O)([O-])[O-])CP(=O)([O-])[O-].[Pt+2]" , no commentary.
Result: > 100000 nM

Query: Name the recorded GI50 of the item "O=C1C(=O)c2ccccc2C(O)=C1CC=C(Cl)Cl" in your answer.
Result: 2680 nM

----------
tested on: XF 498 CNS; assay: NCI tumour cell line growth inhibition, 48 h
Outcome measure: TGI (µM)
Unit µM implied. Number only.

Query: Indicate its recorded TGI; the compound in question is "CCCCCC(O)(CCCCC)CCCCCCCCC1=C(O)c2[nH]c(=O)ccc2C(=O)C1=O"
Result: 16

Query: Tell us which TGI value is on record for "COc1cc(C)c(C)c(OC(=O)c2c(C)c(C)c(OC)c(C)c2OC)c1C"
Result: 40

Query: Give the value of TGI reported for the following: "c1cc[c]([Sn]([S]c2cccc3cccnc23)([S]c2cccc3cccnc23)[c]2ccccc2)cc1"
Result: 0.407

Query: Retrieve TGI measured for "CC(C)(Oc1ccc2c(=O)cc(-c3ccccc3)oc2c1)C(=O)Nc1c(Cl)cccc1Cl" and print it.
Result: 72.2
